Provenance of the data: ChEMBL document CHEMBL5113383

Quick list: MIC per entry.
- System: Candida albicans
- test protocol: Antimicrobial activity against Candida albicans SC5314
- Format: functional
Positions of bridges follow the written chain, without caps; N, C: chain ends. Non-standard residues stand in square brackets, D forms with d. Residues, ends and D or L forms follow the SMILES beside them. S5 = C=CCCC[C@](C)(N)C(=O)O

Record lookup: for Candida albicans, what MIC belongs to CC[C@H](C)[C@@H]1NC(=O)[C@H]([C@@H](C)CC)NC(=O)[C@@](C)(NC(=O)[C@H](Cc2ccccc2)NC(=O)[C@H](CC(C)C)NC(=O)CN)CCC/C=C\CCC[C@@](C)(C(=O)N[C@H](C(=O)N[C@@H](C)C(=O)N[C@@H](CCC(=O)O)C(=O)N[C@@H](CO)C(=O)N[C@@H](Cc2ccccc2)C(N)=O)[C@@H](C)CC)NC(=O)[C@H](CCCCN)NC1=O (H-GLF[S5]IIK[S5]IAESF-NH2; staple (Z) 4-8) ?
> 64 µg/mL

Record lookup: for Candida albicans, what MIC belongs to CC[C@H](C)[C@H](NC(=O)[C@H](CC(=O)O)NC(=O)[C@H](Cc1ccccc1)NC(=O)[C@H](CC(C)C)NC(=O)CNC(C)=O)C(=O)N[C@H](C(=O)N[C@@H](CCCCN)C(=O)N[C@@H](CCCCN)C(=O)N[C@@]1(C)CCC/C=C\CCC[C@@](C)(C(N)=O)NC(=O)[C@H](CO)NC(=O)[C@H](CCC(=O)O)NC(=O)[C@H](C)NC1=O)[C@@H](C)CC (Ac-GLFDIIKK[S5]AES[S5]-NH2; staple (Z) 9-13) ?
> 64 µg/mL

Record lookup: for Candida albicans, what MIC belongs to OC(Cn1cncn1)(Cn1cncn1)c1ccc(F)cc1F [FLUCONAZOLE] ?
0.5 µg/mL

----------
- Tested on: Candida parapsilosis
- test protocol: Antimicrobial activity against Candida parapsilosis ATCC 22010
- Type: functional
- condition label: Lodderomyces parapsilosis
Positions of bridges follow the written chain, without caps; N, C: chain ends. Non-standard residues stand in square brackets, D forms with d. Residues, ends and D or L forms follow the SMILES beside them. S5 = C=CCCC[C@](C)(N)C(=O)O
property: MIC

INSERT INTO assay_data (compound, tested_target, readout_value) VALUES
  ('CC[C@H](C)[C@@H]1NC(=O)[C@@](C)(NC(=O)[C@H](CC(=O)O)NC(=O)[C@H](Cc2ccccc2)NC(=O)[C@H](CC(C)C)NC(=O)CNC(C)=O)CCC/C=C\CCC[C@@](C)(C(=O)N[C@@H](C)C(=O)N[C@@H](CCC(=O)O)C(=O)N[C@@H](CO)C(=O)N[C@@H](Cc2ccccc2)C(N)=O)NC(=O)[C@H](CCCCN)NC(=O)[C@H](CCCCN)NC1=O (Ac-GLFD[S5]IKK[S5]AESF-NH2; staple (Z) 5-9)', 'Candida parapsilosis', '> 128 µg/mL');

Now for a further compound.
Record lookup: for Candida parapsilosis, what MIC belongs to CC[C@H](C)[C@H](NC(=O)[C@H](CCCCN)NC(=O)[C@H](CCCCN)NC(=O)[C@@H](NC(=O)[C@]1(C)CCC/C=C\CCC[C@](C)(NC(C)=O)C(=O)N[C@@H](CC(C)C)C(=O)N[C@@H](Cc2ccccc2)C(=O)N[C@@H](CC(=O)O)C(=O)N1)[C@@H](C)CC)C(=O)N[C@@H](C)C(=O)N[C@@H](CCC(=O)O)C(=O)N[C@@H](CO)C(=O)N[C@@H](Cc1ccccc1)C(N)=O (Ac-[S5]LFD[S5]IKKIAESF-NH2; staple (Z) 1-5) ?
128 µg/mL

----------
- Tested on: Nakaseomyces glabratus
- test protocol: Antimicrobial activity against Candida glabrata ATCC 1182
- Type: functional
Positions of bridges follow the written chain, without caps; N, C: chain ends. Non-standard residues stand in square brackets, D forms with d. Residues, ends and D or L forms follow the SMILES beside them. S5 = C=CCCC[C@](C)(N)C(=O)O
property: MIC

Some molecules with known MIC results, for comparison:
INSERT INTO measurements (molecule, property, readout_value) VALUES
  ('CC[C@H](C)[C@H](NC(=O)[C@H](CCCCN)NC(=O)[C@]1(C)CCC/C=C\CCC[C@](C)(NC(=O)[C@H](CC(C)C)NC(=O)CNC(C)=O)C(=O)N[C@@H](CC(=O)O)C(=O)N[C@@H]([C@@H](C)CC)C(=O)N[C@@H]([C@@H](C)CC)C(=O)N1)C(=O)N[C@@H](C)C(=O)N[C@@H](CCC(=O)O)C(=O)N[C@@H](CO)C(=O)N[C@@H](Cc1ccccc1)C(N)=O (Ac-GL[S5]DII[S5]KIAESF-NH2; staple (Z) 3-7)', 'MIC', '> 128 µg/mL'),
  ('CC[C@H](C)[C@H](NC(=O)[C@H](CC(=O)O)NC(=O)[C@H](Cc1ccccc1)NC(=O)[C@H](CC(C)C)NC(=O)CN)C(=O)N[C@@]1(C)CCC/C=C\CCC[C@@](C)(C(=O)N[C@@H](CCC(=O)O)C(=O)N[C@@H](CO)C(=O)N[C@@H](Cc2ccccc2)C(N)=O)NC(=O)[C@H]([C@@H](C)CC)NC(=O)[C@H](CCCCN)NC(=O)[C@H](CCCCN)NC1=O (H-GLFDI[S5]KKI[S5]ESF-NH2; staple (Z) 6-10)', 'MIC', '> 128 µg/mL'),
  ('CC[C@H](C)[C@H](NC(=O)[C@H](CCCCN)NC(=O)[C@H](CCCCN)NC(=O)[C@]1(C)CCC/C=C\CCC[C@](C)(NC(=O)CNC(C)=O)C(=O)N[C@@H](Cc2ccccc2)C(=O)N[C@@H](CC(=O)O)C(=O)N[C@@H]([C@@H](C)CC)C(=O)N1)C(=O)N[C@@H](C)C(=O)N[C@@H](CCC(=O)O)C(=O)N[C@@H](CO)C(=O)N[C@@H](Cc1ccccc1)C(N)=O (Ac-G[S5]FDI[S5]KKIAESF-NH2; staple (Z) 2-6)', 'MIC', '> 128 µg/mL'),
  ('OC(Cn1cncn1)(Cn1cncn1)c1ccc(F)cc1F [FLUCONAZOLE]', 'MIC', '2 µg/mL'),
  ('CC[C@H](C)[C@@H]1NC(=O)[C@H]([C@@H](C)CC)NC(=O)[C@@](C)(NC(=O)[C@H](Cc2ccccc2)NC(=O)[C@H](CC(C)C)NC(=O)CN)CCC/C=C\CCC[C@@](C)(C(=O)N[C@H](C(=O)N[C@@H](C)C(=O)N[C@@H](CCC(=O)O)C(=O)N[C@@H](CO)C(=O)N[C@@H](Cc2ccccc2)C(N)=O)[C@@H](C)CC)NC(=O)[C@H](CCCCN)NC1=O (H-GLF[S5]IIK[S5]IAESF-NH2; staple (Z) 4-8)', 'MIC', '> 128 µg/mL');

Can you look up the measured MIC of CC[C@H](C)[C@H](NC(=O)[C@H](CCCCN)NC(=O)[C@H](CCCCN)NC(=O)[C@@H](NC(=O)[C@]1(C)CCC/C=C\CCC[C@](C)(NC(C)=O)C(=O)N[C@@H](CC(C)C)C(=O)N[C@@H](Cc2ccccc2)C(=O)N[C@@H](CC(=O)O)C(=O)N1)[C@@H](C)CC)C(=O)N[C@@H](C)C(=O)N[C@@H](CCC(=O)O)C(=O)N[C@@H](CO)C(=O)N[C@@H](Cc1ccccc1)C(N)=O (Ac-[S5]LFD[S5]IKKIAESF-NH2; staple (Z) 1-5) for me?
> 128 µg/mL

----------
- Tested on: Candida parapsilosis
- test protocol: Antimicrobial activity against Candida parapsilosis ATCC 22010
- Assay type: functional
- condition label: Lodderomyces parapsilosis
Positions of bridges follow the written chain, without caps; N, C: chain ends. Non-standard residues stand in square brackets, D forms with d. Residues, ends and D or L forms follow the SMILES beside them. S5 = C=CCCC[C@](C)(N)C(=O)O
property: MIC

INSERT INTO results (compound, readout_value) VALUES
  ('OC(Cn1cncn1)(Cn1cncn1)c1ccc(F)cc1F', '1 µg/mL'),
  ('CC[C@H](C)[C@@H]1NC(=O)[C@H](CCCCN)NC(=O)[C@@](C)(NC(=O)[C@@H](NC(=O)[C@@H](NC(=O)[C@H](CC(=O)O)NC(=O)[C@H](Cc2ccccc2)NC(=O)[C@H](CC(C)C)NC(=O)CN)[C@@H](C)CC)[C@@H](C)CC)CCC/C=C\CCC[C@@](C)(C(=O)N[C@@H](CO)C(=O)N[C@@H](Cc2ccccc2)C(N)=O)NC(=O)[C@H](C)NC1=O (H-GLFDII[S5]KIA[S5]SF-NH2; staple (Z) 7-11)', '> 128 µg/mL'),
  ('CC[C@H](C)[C@H](NC(=O)[C@H](CCCCN)NC(=O)[C@H](CCCCN)NC(=O)[C@]1(C)CCC/C=C\CCC[C@](C)(NC(=O)CNC(C)=O)C(=O)N[C@@H](Cc2ccccc2)C(=O)N[C@@H](CC(=O)O)C(=O)N[C@@H]([C@@H](C)CC)C(=O)N1)C(=O)N[C@@H](C)C(=O)N[C@@H](CCC(=O)O)C(=O)N[C@@H](CO)C(=O)N[C@@H](Cc1ccccc1)C(N)=O (Ac-G[S5]FDI[S5]KKIAESF-NH2; staple (Z) 2-6)', '> 128 µg/mL');

Can you look up the measured MIC of CC[C@H](C)[C@H](NC(=O)[C@H](CCCCN)NC(=O)[C@]1(C)CCC/C=C\CCC[C@](C)(NC(=O)[C@H](CC(C)C)NC(=O)CNC(C)=O)C(=O)N[C@@H](CC(=O)O)C(=O)N[C@@H]([C@@H](C)CC)C(=O)N[C@@H]([C@@H](C)CC)C(=O)N1)C(=O)N[C@@H](C)C(=O)N[C@@H](CCC(=O)O)C(=O)N[C@@H](CO)C(=O)N[C@@H](Cc1ccccc1)C(N)=O (Ac-GL[S5]DII[S5]KIAESF-NH2; staple (Z) 3-7) for me?
> 128 µg/mL

Can you look up the measured MIC of CC[C@H](C)[C@@H]1NC(=O)[C@H]([C@@H](C)CC)NC(=O)[C@@](C)(NC(=O)[C@H](Cc2ccccc2)NC(=O)[C@H](CC(C)C)NC(=O)CN)CCC/C=C\CCC[C@@](C)(C(=O)N[C@H](C(=O)N[C@@H](C)C(=O)N[C@@H](CCC(=O)O)C(=O)N[C@@H](CO)C(=O)N[C@@H](Cc2ccccc2)C(N)=O)[C@@H](C)CC)NC(=O)[C@H](CCCCN)NC1=O (H-GLF[S5]IIK[S5]IAESF-NH2; staple (Z) 4-8) for me?
> 128 µg/mL
